B1: CDC34 (parent)
chain: GGYFKARLKFPIDYPYSPPAFRFL

- Variants of: B1
- assay.summary: protein stability index of a GFP-peptide fusion (GPS, HEK-293T) (PSI 1-6); higher = more stable;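 note: lentivirally expressed fusions sorted by FACS into six bins by GFP to DsRed ratio, PSI derived from sequencing read proportions per bin multiplied by bin number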
- condition.label: c terminus: a fixed tail appended
Each entry below carries its recorded protein stability index.
Would you mind answering with just the numeric figure?

[[record]]
record_sequence = "GGYFKARLKFPIDYPYSPPAFRSL"
observation_type = "protein stability index"
result = 2.95

[[record]]
record_sequence = "GGYFKARLKFPIDYPYSPPAFRFQ"
observation_type = "protein stability index"
result = 2.95

[[record]]
record_sequence = "GGYFKARLKFPIDYPYSPPHFRFL"
observation_type = "protein stability index"
result = 3.05

[[record]]
record_sequence = "GGYFKARLKFPIDYPYSPPAFLFL"
observation_type = "protein stability index"
result = 2.97


input: Give a short answer stating reported protein stability index for GGYFKARLHFPIDYPYSPPAFRFL .
output: 3.05
